Test system: 786-0 renal
Assay: NCI-60 one-dose screen, 48 h
Settings: 10 µM unless noted
Compounds without any hit were thinned out: in the full panel of roughly 83,000, 20% have a hit. The source made the active and inactive calls. How the source made its calls: active means growth percent below 10; inactive means the rest.
Field 'call' accepts active, inactive

| compound | label-value |
| --- | --- |
| N#Cc1c(-c2ccc(F)cc2)nc(N/N=C/c2c[nH]c3ccccc23)nc1N1CCOCC1 | active |
| Cc1nccc2c3ccc(OCc4cn(-c5ccccc5)nn4)cc3n(CCCc3ccccc3)c12 | inactive |

// param item: COc1ccccc1-c1ccc2nc(NC(=O)Nc3cc(C(F)(F)F)cc(C(F)(F)F)c3)sc2c1 ; yields the recorded call
active

// param item: C#C[C@@]1(O)[C@@H](CO)O[C@@H](n2cc(F)c3c(N)ncnc32)[C@@H]1O ; yields the recorded call
active

// param item: COc1ccc(C(=O)c2cc(OC)c(OC)c(OC)c2)cc1OC(=O)CCl ; yields the recorded call
inactive

// param item: COc1ccc(Sc2[nH]c(C(C)=O)c3ccccc23)cc1 ; yields the recorded call
inactive

// param item: Cc1nc2sc(C(=O)Nc3ccccc3Cl)c(N)c2cc1C(C)O (stereo not drawn) ; yields the recorded call
inactive

// param item: COc1cc2nc3c(=O)n(CCN(C)C)cnn3c(=O)c2cc1OC ; yields the recorded call
inactive

// param item: CN1CCN(C(=O)[C@@]2(C)CC[C@]3(C)CC[C@]4(C)C(=CC[C@@H]5[C@@]6(C)CC[C@H](OC(=O)c7cccnc7)C(C)(C)[C@@H]6CC[C@]54C)[C@@H]3C2)CC1 ; yields the recorded call
inactive

// param item: N#Cc1c(-c2ccc(F)cc2)nc(N=Nc2c(O)[nH]c3ccccc23)nc1N1CCOCC1 ; yields the recorded call
inactive

// param item: COc1ccc(-c2[nH]c3ccc(OC)cc3c2C=C(C#N)C#N)cc1 ; yields the recorded call
inactive

// param item: CN1CCN(/C=C2\CC(C(=O)NCc3ccc(Cl)cc3Cl)NC2=O)CC1 (stereo not drawn) ; yields the recorded call
inactive

// param item: CCN(CC)c1ccc2c(c1)Oc1nc(N)c(C#N)c(N)c1C2Sc1ccc(OC)cc1 (stereo not drawn) ; yields the recorded call
active

// param item: S=C(Nc1ccc(Cl)cc1)c1ccccn1 ; yields the recorded call
inactive

// param item: CCOC(=O)c1c(-c2ccc(O)cc2)c(C#N)c2c(C#N)c(N)nn2c1N ; yields the recorded call
inactive

// param item: CCN1CCN(Cc2ccc(NC(=O)c3cccc(C#Cc4cccc5[nH]nc(N)c45)c3)cc2C(F)(F)F)CC1 ; yields the recorded call
active

// param item: C#Cc1cccc(Nc2ncnc3ccc(NC(=O)c4ccccc4)cc23)c1 ; yields the recorded call
inactive

// param item: COc1cc(/C=C/CO)cc(OC)c1O[C@@H]1O[C@H](CO)[C@@H](O)[C@H](O)[C@H]1O ; yields the recorded call
inactive

// param item: CCOC(=O)/C(=C/c1c(-c2ccccc2)[nH]c2ccccc12)C(=O)c1ccc(Cl)cc1 ; yields the recorded call
inactive

// param item: COc1ccccc1Nc1nnc(-c2ccc(Cl)cc2)o1 ; yields the recorded call
inactive

---

Tested on: MDA-MB-435 melanoma
Assay: NCI-60 one-dose screen, 48 h (100 = growth as untreated, 0 = no growth, -100 = all killed)
Settings: 10 µM unless noted
This is part of a sample that, as a whole, favours compounds with a hit. Of some 83,000 tested, about 20% had one in any assay.
measurement-kind: growth (%)
Please reply with the bare figure in % and do not write the unit itself.

Examples from the recorded data:
| compound | system-tested | measurement-unit | experimental-value |
| --- | --- | --- | --- |
| N#Cc1ccc(N2Cc3cc(Cl)ccc3OC3=C2C(=O)N(Cc2ccc(F)cc2)C3=O)cc1 | MDA-MB-435 melanoma | % | -48.8 |
| CCCCc1ccc(N=Nc2ccc(OCC[N+](C)(C)C)cc2)cc1 | MDA-MB-435 melanoma | % | 88.6 |
| COc1ccc(-c2nnc(N3CCN(C(=O)CN4CCN(c5ccc(OC)cc5)CC4)CC3)nc2-c2ccc(OC)cc2)cc1 | MDA-MB-435 melanoma | % | -68.1 |
| OCCNc1nc(NCCO)nc(Nc2ccc(C3=NN(c4cc(Cl)cc(Cl)c4)C(c4ccccc4)C3)cc2)n1 (configuration not stated) | MDA-MB-435 melanoma | % | 49.5 |
| CC(=O)OC[C@]12CC[C@@H](c3cn(Cc4ccc(Cn5cc([C@@H]6CC[C@]7(COC(C)=O)CC[C@]8(C)[C@H](CC[C@@H]9[C@@]%10(C)CC[C@H](OC(C)=O)C(C)(C)[C@@H]%10CC[C@]98C)[C@@H]67)nn5)cc4)nn3)[C@@H]1[C@H]1CC[C@@H]3[C@@]4(C)CC[C@H](OC(C)=O)C(C)(C)[C@@H]4CC[C@@]3(C)[C@]1(C)CC2 | MDA-MB-435 melanoma | % | 105 |

Which value of growth has been reported for O=C1CS/C(=N/c2nnc(-c3ccc(O)cc3)s2)N1 in the records?
103

Which value of growth has been reported for COc1ccc(/C=C(/C(=O)N2CCN(Cc3ccccc3)CC2)c2cc(OC)c(OC)c(OC)c2)cc1O in the records?
1.04
